Cited source for all entries: the supplement of paper PMC7877785

Assay: self-splicing fitness, log relative to wild type (ln ratio); higher = more splicing; Tetrahymena group I intron in knt gene, E. coli kanamycin selection, DiMSum; sequences stand for … in CUCUCU…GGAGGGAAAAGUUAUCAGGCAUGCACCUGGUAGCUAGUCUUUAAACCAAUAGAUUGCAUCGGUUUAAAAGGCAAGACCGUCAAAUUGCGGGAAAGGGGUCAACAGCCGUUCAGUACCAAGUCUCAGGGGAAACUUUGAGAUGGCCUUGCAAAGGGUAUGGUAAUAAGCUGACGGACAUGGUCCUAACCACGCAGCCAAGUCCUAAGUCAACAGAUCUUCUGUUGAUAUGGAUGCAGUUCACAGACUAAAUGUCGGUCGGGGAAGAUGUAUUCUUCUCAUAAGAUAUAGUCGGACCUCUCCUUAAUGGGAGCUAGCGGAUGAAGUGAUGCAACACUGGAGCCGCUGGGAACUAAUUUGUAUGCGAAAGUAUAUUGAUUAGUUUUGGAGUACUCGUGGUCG;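 further: selection with 25 µg/mL kanamycin versus none on LB agar overnight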
Details: 30 °C
Lab note: compare self-splicing fitness (ln) against -3. Equal or greater, write yes (1). Smaller, write no (0).

Evaluate GCAUAGCAAUAUUACGCAGG : self-splicing fitness (ln) at minimum -3?
yes (1)

Evaluate AUGCAGCAAUAUUACGGGGU : self-splicing fitness (ln) at minimum -3?
no (0)

Evaluate UCCCAGCAAUAUUACGCAUC : self-splicing fitness (ln) at minimum -3?
no (0)

Evaluate GCGAAGCAAUAUUACGACAA : self-splicing fitness (ln) at minimum -3?
yes (1)

Evaluate CAGUAGCAAUAUUACGAGUC : self-splicing fitness (ln) at minimum -3?
no (0)

Evaluate UUACAGCAAUAUUACGAUGU : self-splicing fitness (ln) at minimum -3?
no (0)

Evaluate GCUGAGCAAUAUUACGAAUC : self-splicing fitness (ln) at minimum -3?
yes (1)

Evaluate CUUGAGCAAUAUUACGCGCA : self-splicing fitness (ln) at minimum -3?
yes (1)

Evaluate ACGAAGCAAUAUUACGAAAC : self-splicing fitness (ln) at minimum -3?
yes (1)

Evaluate GCUAAGCAAUAUUACGUCAC : self-splicing fitness (ln) at minimum -3?
no (0)

Evaluate UGAAAGCAAUAUUACGAUGG : self-splicing fitness (ln) at minimum -3?
yes (1)

Evaluate AUGCAGCAAUAUUACGUCUC : self-splicing fitness (ln) at minimum -3?
yes (1)

Evaluate GUAUAGCAAUAUUACGGAAU : self-splicing fitness (ln) at minimum -3?
yes (1)

Evaluate CCAGAGCAAUAUUACGUUGC : self-splicing fitness (ln) at minimum -3?
no (0)

Evaluate CAGUAGCAAUAUUACGAGCC : self-splicing fitness (ln) at minimum -3?
no (0)

Evaluate UAUCAGCAAUAUUACGUCGG : self-splicing fitness (ln) at minimum -3?
yes (1)

Evaluate CAGCAGCAAUAUUACGCUAA : self-splicing fitness (ln) at minimum -3?
yes (1)

Evaluate GGUUAGCAAUAUUACGUCCU : self-splicing fitness (ln) at minimum -3?
yes (1)

Evaluate GGUGAGCAAUAUUACGGGCU : self-splicing fitness (ln) at minimum -3?
yes (1)

Evaluate GUGGAGCAAUAUUACGAACU : self-splicing fitness (ln) at minimum -3?
yes (1)

Evaluate CAGGAGCAAUAUUACGCGGC : self-splicing fitness (ln) at minimum -3?
yes (1)

Evaluate UAUUAGCAAUAUUACGGGUU : self-splicing fitness (ln) at minimum -3?
yes (1)

Evaluate GUUAAGCAAUAUUACGCUGU : self-splicing fitness (ln) at minimum -3?
yes (1)

Evaluate AUCGAGCAAUAUUACGAACC : self-splicing fitness (ln) at minimum -3?
yes (1)

Evaluate UGCUAGCAAUAUUACGUAGA : self-splicing fitness (ln) at minimum -3?
yes (1)
